Values were extracted from patent EP0393786B1.

assay: Stability to enzymic hydrolysis in heparinized human plasma (half-life); details: human
measurement type: half-life (min)
Entry rule: numbers only, all in min.

{"columns": ["compound", "measured value"],
 "data": [
  ["CC(C)[C@@H](NC(=O)C(Cc1ccc(O)cc1)C(=O)O)NC(=O)[C@H](CC(=O)O)NC(=O)[C@H](CCCCN)NC(=O)[C@@H](N)CCCNC(=N)N (stereo partly drawn) [Example 3, [gVal⁴,(R,S)mTyr⁵]TP5]", 2.5]
]}

Task: Recorded half-life for CC(C)C(C(=O)N[C@H](CC(=O)O)NC(=O)[C@H](CCCCN)NC(=O)[C@@H](N)CCCNC(=N)N)C(=O)N[C@@H](Cc1ccc(O)cc1)C(=O)O (stereo partly drawn) [Example 2, CH₃COOH.H-Arg-Lys-gAsp-(R,S)mVal-Tyr-OH] , please?
Result: 10

Task: Consider next the compound CC(C)[C@H](NC(=O)[C@H](CC(=O)O)NC(=O)C(CCCCN)C(=O)NC(N)CCCNC(=N)N)C(=O)N[C@@H](Cc1ccc(O)cc1)C(=O)O (stereo partly shown) [reference compound] in the same way.
Result: 22
